# experiment: Plasma and brain concentrations and pharmacokinetics in mice
# condition.notes: mouse, plasma
attribute.measured: half-life

compound="COc1ccccc1OCC(O)CN1CCN(CC(=O)Nc2c(C)cccc2C)CC1 (stereo not shown) [Ranolazine, reference compound]" attribute_measured=half-life result="~15 min"
